Let's look at some compounds and their measured AC50.
Biological target: 5-hydroxytryptamine receptor 2A (Homo sapiens); note: assay procedure not described here
Sequence (P28223 whole entry): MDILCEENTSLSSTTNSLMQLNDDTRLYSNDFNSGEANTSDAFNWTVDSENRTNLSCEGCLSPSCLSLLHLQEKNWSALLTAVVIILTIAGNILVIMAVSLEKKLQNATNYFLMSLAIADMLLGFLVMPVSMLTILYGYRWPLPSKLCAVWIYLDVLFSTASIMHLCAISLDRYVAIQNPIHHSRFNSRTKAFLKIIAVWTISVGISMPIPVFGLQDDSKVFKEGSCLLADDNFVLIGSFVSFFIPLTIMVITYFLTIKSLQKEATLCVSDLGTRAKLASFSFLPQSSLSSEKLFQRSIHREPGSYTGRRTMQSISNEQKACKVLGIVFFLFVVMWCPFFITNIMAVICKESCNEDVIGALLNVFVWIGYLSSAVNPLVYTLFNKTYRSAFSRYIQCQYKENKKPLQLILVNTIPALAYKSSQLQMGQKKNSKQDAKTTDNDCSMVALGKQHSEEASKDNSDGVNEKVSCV
Assay type: functional, cell-based

{"columns": ["COMPOUND", "COMPARISON_SYMBOL", "AC50, µM"],
 "data": [
  ["CNC[C@H](O)c1cccc(O)c1", ">", 30],
  ["CCSc1ccc2c(c1)N(CCCN1CCN(C)CC1)c1ccccc1S2", "=", 1.6],
  ["CC(=O)c1ccc2c(c1)N(CCCN1CCC(CCO)CC1)c1ccccc1S2", "=", 0.3],
  ["O=C(CCCN1CCC(n2c(O)nc3ccccc32)CC1)c1ccc(F)cc1", "=", 0.12],
  ["N=C(N)NCCCCCCC(=O)NC(O)C(=O)NCCCCNCCCN (centres undefined)", ">", 30],
  ["C=CC1=C(C(=O)O)N2C(=O)[C@@H](NC(=O)/C(=N\\OCC(=O)O)c3csc(N)n3)[C@H]2SC1", ">", 30],
  ["O=C(O)c1ccccc1OP(=O)(O)O", ">", 30],
  ["CCC(C)(Oc1ccc(C2(c3ccc(OC(C)(CC)C(=O)O)cc3)CCCCC2)cc1)C(=O)O (centres undefined) [CLINOFIBRATE]", ">", 30],
  ["COc1cc2nccc(Oc3ccc(NC(=O)Nc4cc(C)on4)c(Cl)c3)c2cc1OC", "=", 24]
]}
